Biological target: hEP4 (Homo sapiens, UniProt P35408)
Construct: expressed in transfected cells; host or cells: HEK293
Sequence (P35408 whole entry): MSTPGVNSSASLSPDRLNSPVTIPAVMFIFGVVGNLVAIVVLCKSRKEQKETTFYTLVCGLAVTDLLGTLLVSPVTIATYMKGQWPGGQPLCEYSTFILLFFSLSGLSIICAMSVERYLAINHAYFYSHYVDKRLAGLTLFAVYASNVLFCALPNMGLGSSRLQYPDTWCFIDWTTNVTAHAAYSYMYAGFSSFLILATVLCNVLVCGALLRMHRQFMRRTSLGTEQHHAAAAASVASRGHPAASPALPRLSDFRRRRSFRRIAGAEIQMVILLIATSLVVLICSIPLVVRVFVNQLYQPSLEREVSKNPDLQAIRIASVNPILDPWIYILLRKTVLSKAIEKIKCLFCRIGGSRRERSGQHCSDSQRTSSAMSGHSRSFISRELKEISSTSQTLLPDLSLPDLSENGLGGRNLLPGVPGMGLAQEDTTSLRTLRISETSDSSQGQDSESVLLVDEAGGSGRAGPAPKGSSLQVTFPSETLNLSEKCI
Test: hEP4 cAMP assay
Type: cell-based
Conditions: HEK293 cells overexpressing hEP4; PGE2 agonist 20 nM; graded per Table 21; read-out: IC50 (nM) EP4 cAMP
Below, each entry is listed with its recorded IC50.

Reference set (3 entries):
[H][C@]1(C(=O)O)C[C@]2(C[C@H](NC(=O)c3c(C)sc(C)c3Cc3ccc(-c4cc(OC)cc(N5CCC5=O)c4)cc3)C2)C1 (stereo partly shown) : < 500 nM
Cc1ccc(-c2ccc(Cc3c(C)sc(C)c3C(=O)NC3CC4(C3)CC(C(=O)O)C4)cc2)cc1C (stereo not shown) : < 500 nM
O=C(NC1CC2(C1)CC(C(=O)O)C2)c1csc2ccn(CC#Cc3ccccc3)c12 (stereo not shown) : 500 to 5000 nM

Now consider the entry below.
### Prompt Entry Cc1ccccc1-c1ccc(Cc2c(C)sc(C)c2C(=O)NC2CC3(C2)CC(C(=O)O)C3)cc1 (stereo not shown) has what IC50?
### Response 500 to 5000 nM
